Molecular target: T1, PTH (1-84) (UniProt P01270 32-115)
T1 sequence: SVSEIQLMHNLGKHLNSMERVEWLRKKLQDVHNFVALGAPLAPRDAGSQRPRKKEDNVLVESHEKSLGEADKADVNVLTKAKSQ
Assay: fluorescent magnetic bead binding assay; peptide on beads, aptamer 100-2500 nM; Bead assay: SELEX conditions (PBS, room temperature), 30 min incubation then wash, pH not stated; EIS: 30 min at ambient temperature, PBS wash, read in 0.1 M KCl with 5 mM ferri/ferrocyanide
Details: protein: commercial; tags: none stated; amine-coupled to carboxy magnetic beads
endpoint-name: Kd (nM)
I only need the number, in nM, no unit after it.

Measured Kd of TATTGGTATGTGCGTCGTCGGTGACCTCTTTCACGGCCGG (ssDNA) [Aptamer-PTH (1-84)] : 340

Taken from paper PMC12529457.
